- test system: pooled human IgG (human IgG1,2,3 and 4)
observed property: Enzyme Activity Endpoint Assay: Fab′2 (ng/µL)

protein	observed property	result units	readout number
PRT-316 (protein) MTITSVWTKGVTPPTPEDFRKNNEDVLHAPYVANQGWYDITKTFDGKDNLLCGAATAGNMLHWWFDQNKEEIERYLKKHPEKQKIIFNNQELFDVKAAIDTKDSQTNSKLFNYFRDKAFPNLSARQLGVMPDLVLDMFINGYYLNLGKTQSTDVNRPYQDKDKRGGIFDAVFTRGDQTTLLTARHDLKNKGLNEISDLIKQELTEGKALALSHTYANVRINHVINLWGADFDAEGNLIAIYVTDSDANASIGMKKYFVGRNANGKVAISAKKIEGDNIGAQVLGLFTLSTGQDIWQKLS	Enzyme Activity Endpoint Assay: Fab′2	ng/µL	772
PRT-284 (protein) MVTSVWTKGVTPPAKFTQGEDVFHAPYVANQGWYDITKTFNGKDDLLCGAATAGNMLHWWFDQNKEKIEAYLKKHPDKQKIMFGDQELLDVRKVINTKGDQTNSELFNYFRDKAFPNLSARRIGVMPDLVLDMFINGYYLNVYKTQTTDVNRTYQEKDRRGGIFDAVFTRGDQSKLLTSRHDFKEKNLKEISDLIKKELTEGKALGLSHTYANVRLNHVINLWGADFDSNGNLKAIYVTDSDSNASIGMKKYGVGVNSAGKVAISAKEIKEDNIGAQVLGLFTLSTGQDSWNQTN	Enzyme Activity Endpoint Assay: Fab′2	ng/µL	72
